System: TK-10 renal
test description: NCI tumour cell line growth inhibition, 48 h
quantity kind: TGI

CN(CCn1cnc2c1c(=O)n(C)c(=O)n2C)C1CCCCC1
> 100 µM
FC(F)(F)c1nc2nc(Cl)c(Cl)nc2n1CCCN1CCOCC1
> 100 µM

Pending compound:
What measured TGI goes with CC(=O)[O][Ga]([Cl])[O]C(C)=O ?
> 100 µM

====

Listed here are compounds together with their documented TGI.
System: MDA-MB-435
test description: NCI tumour cell line growth inhibition, 48 h

S=C(Nc1ccc(Br)cc1)Nc1ccc(Br)cc1
> 100 µM
Nc1nc(Cl)c(N)c(NCC2(CO)CC(OCc3ccccc3)C2)n1 (stereo not given)
> 100 µM
C=C(C)C(=O)O[C@H]1C[C@@]23O[C@@H]2CCC(=C[C@H]2OC(=O)C(=C)[C@H]12)COC3O (stereo not given in full)
> 100 µM
Cc1sc2nc(-c3ccncc3)c(/C=N/N=C(N)N)n2c1C
> 100 µM
CC(=O)OCC1OC(n2c(-c3ccc(Cl)cc3)ccc(C#N)c2=S)C(OC(C)=O)C(OC(C)=O)C1OC(C)=O (stereo not given)
> 100 µM

Endpoint output: TGI of CC(=O)N=C1N(/C=C2\C(=O)Oc3ccccc3C2=O)C(=O)/C(=C/c2ccc(OC(C)=O)cc2)N1C . Value?
> 100 µM

// same read-out, input: COC(=O)C1Cc2c(OC)ccc(OC)c2CC(C(=O)OC)C1=O (stereo not given)
> 100 µM

Param item: OCc1ccc(-c2ccc(-c3ccc(CO)o3)[se]2)o1
> 100 µM

Try this compound too: COC(=O)CCC(=O)NC1=C(NCc2ccccc2)C(=O)c2ccccc2C1=O
34.9 µM

Then this compound: Cn1cc(C2=C(c3cn(CCCCN)c4ccccc34)C(=O)NC2=O)c2ccccc21
> 25 µM

Then this compound: COC(=O)C(Cc1c(C2Nc3ccccc3C2CC(NC(=O)CNC(C)=O)C(=O)OC)[nH]c2ccccc12)NC(=O)CNC(C)=O (stereo not given)
> 100 µM

Also check O=C(/C=C/c1ccc(O)cc1)c1ccc2c(c1)OCO2
69.5 µM

Now the same for Cn1c(=O)c(C(=O)Nc2nc(C34CC5CC(CC(C5)C3)C4)cs2)c(O)c2ccccc21
> 100 µM
